# Tested on: H37Rv Mtb
# experiment.description: MIC against replicating H37Rv Mtb in GAS and 7H12 media
# Assay type: cell-based, Mycobacterium tuberculosis
# run.parameters: Mycobacterium tuberculosis, H37RV, read-out: MIC mean +/- against replicating Mtb in medium: GAS (μg/mL), GAS medium; H37Rv; recalculated from μM
parameter: MIC (µg/mL)
All answers are understood in µg/mL, so give the number only.

Inquiry: Entry under review: Cc1ccc2nc(C)c(C(=O)NCc3ccccc3)n2n1 [Compound 7] . Reported MIC?
Reply text: 17.9

Inquiry: Cc1ccc2c(C(=O)NCc3ccccc3)c(C)[nH]c2c1 [Compound 8] ?
Reply text: 12.2

Inquiry: Cc1ccn2c(C)c(C(=O)NCc3ccccc3)nc2c1 [Compound 12] ?
Reply text: 19.6
